assay: Selectivity index, ratio of IC50 for rat L6 cells to IC50 for Trypanosoma brucei rhodesiense STIB 900 bloodstream forms; format: toxicity, cell-based; conditions: read-out: Ratio IC50
MEASURED_PARAMETER: selectivity ratio
// return a plain number; no unit text

Documented selectivity ratio of CN(C)C12CCN(C(=O)CN3CCCCC3)C(C(c3ccccc3)C1)C(c1ccccc1)C2 (centres undefined) : 14.9

Field selectivity ratio (entry CN(C)C12CC(c3ccccc3)C(CN(CCCN3CCCC3)C1)C(c1ccccc1)C2 (racemic) ) reads 9.69

The compound listed as CCN(CC)CCC(=O)N1CC2C(c3ccccc3)CC(N(C)C)(CC2c2ccccc2)C1 (racemic) shows selectivity ratio equal to 20.6

For this compound ( CCN(CC)CC(=O)N1CCC2(N(C)C)CC(c3ccccc3)C1C(c1ccccc1)C2 (centres undefined) ), measured selectivity ratio is 17.2

Lab book: selectivity ratio of CN(C)C12CC(NC(=O)CN3CCCCC3)C(C(c3ccccc3)C1)C(c1ccccc1)C2 (racemic) noted as 14.9

Field selectivity ratio (entry CN1CCN(CCCN2CC3C(c4ccccc4)CC(N(C)C)(CC3c3ccccc3)C2)CC1 (racemic) ) reads 1.82

Summary for this compound, CN(C)C12CC(c3ccccc3)C(CN(C(=O)CCN3CCCCC3)C1)C(c1ccccc1)C2 (racemic) : selectivity ratio is 10.1

# selectivity ratio (compound: CN(C)C12CC(c3ccccc3)C(CN(CCN3CCCCC3)C1)C(c1ccccc1)C2 (racemic) ) is 24.3

Looking up CN(C)C12CC(c3ccccc3)C(CN(CCCN3CCCCC3)C1)C(c1ccccc1)C2 (racemic) , I found its selectivity ratio recorded as 11.7

----------
experiment: Selectivity index, ratio of IC50 for rat L6 cells to IC50 for chloroquine/pyrimethamine resistant Plasmodium falciparum K1 infected in human red blood cells; type: toxicity, cell-based; conditions: read-out: Ratio IC50
For each of the compounds below, state its selectivity ratio.
# print the numeric value only

For CN(C)C12CC(NC(=O)CN3CCCCC3)C(C(c3ccccc3)C1)C(c1ccccc1)C2 (racemic) the compound record lists selectivity ratio as 65.1

response.value for CN1CCN(CCN2CC3C(c4ccccc4)CC(N(C)C)(CC3c3ccccc3)C2)CC1 (racemic) (field: selectivity ratio) = 21

// field: selectivity ratio; key: CCN(CC)CCN1CCC2(N(C)C)CC(c3ccccc3)C1C(c1ccccc1)C2 (racemic) ; value = 142

According to the records, this compound CCN(CC)CCC(=O)N1CC2C(c3ccccc3)CC(N(C)C)(CC2c2ccccc2)C1 (racemic) displays selectivity ratio of 39.6

----------
Can you tell me selectivity ratio for the items I'm about to list?
assay: Selectivity index, ratio of IC50 for rat L6 cells to IC50 for Trypanosoma brucei rhodesiense STIB 900 bloodstream forms; assay type: toxicity, cell-based; details: read-out: Ratio IC50
Give your answer as a number; write no unit.

The reported selectivity ratio of the compound CN1CCN(CC(=O)N2CC3C(c4ccccc4)CC(N(C)C)(CC3c3ccccc3)C2)CC1 (racemic) was 6.29

Reported selectivity ratio for CCN(CC)CCCN1CC2C(c3ccccc3)CC(N(C)C)(CC2c2ccccc2)C1 (racemic) was 7.11

So, CCN(CC)CCN1CCC2(N(C)C)CC(c3ccccc3)C1C(c1ccccc1)C2 (racemic) ? Its selectivity ratio was 56.5

Reported selectivity ratio for CN(C)C12CC(c3ccccc3)C(CN(C(=O)CCN3CCCC3)C1)C(c1ccccc1)C2 (racemic) was 7.46

Kindly note the recorded selectivity ratio for Nc1nc(N)nc(Nc2ccc([As]3SCC(CO)S3)cc2)n1 (stereo not drawn) , which is 2000

Entry CN(C)C12CCN(CCN3CCCCC3)C(C(c3ccccc3)C1)C(c1ccccc1)C2 (racemic) , selectivity ratio reported as 51.6

Briefly, selectivity ratio measured for CN1CCN(CCN2CC3C(c4ccccc4)CC(N(C)C)(CC3c3ccccc3)C2)CC1 (racemic) : 19.5

Note to self: selectivity ratio recorded for CN1CCN(CCC(=O)N2CC3C(c4ccccc4)CC(N(C)C)(CC3c3ccccc3)C2)CC1 (racemic) was 8.54

----------
assay: Selectivity index, ratio of IC50 for rat L6 cells to IC50 for Trypanosoma brucei rhodesiense STIB 900 bloodstream forms; type: toxicity, cell-based; conditions: read-out: Ratio IC50
MEASURED_PARAMETER: selectivity ratio
Please give the numeric answer without any surrounding text.

selectivity ratio recorded for this molecule, CN(C)C12CC(NC(=O)CCN3CCCCC3)C(C(c3ccccc3)C1)C(c1ccccc1)C2 (racemic) , is 5.27

Record CN(C)C12CC(c3ccccc3)C(CN(C(=O)CN3CCCC3)C1)C(c1ccccc1)C2 (racemic) , field selectivity ratio: 5.82

Per the record, CN(C)C12CC(c3ccccc3)C(CN(CCN3CCCC3)C1)C(c1ccccc1)C2 (racemic) has selectivity ratio of 10.3

For reference, reported selectivity ratio for CN(C)C12CC(c3ccccc3)C(CN(C(=O)CN3CCCCC3)C1)C(c1ccccc1)C2 (racemic) stands at 5.05

----------
assay: Selectivity index, ratio of IC50 for rat L6 cells to IC50 for chloroquine/pyrimethamine resistant Plasmodium falciparum K1 infected in human red blood cells; type: toxicity, cell-based; settings: read-out: Ratio IC50
Hi there, I'd appreciate the recorded selectivity ratio for every entry that follows.

Noted for CN(C)C12CC(c3ccccc3)C(CN(C(=O)CN3CCCC3)C1)C(c1ccccc1)C2 (racemic) : its selectivity ratio reads 52.4

Documented selectivity ratio of CCN(CC)CCCN1CC2C(c3ccccc3)CC(N(C)C)(CC2c2ccccc2)C1 (racemic) : 50.3

The recorded selectivity ratio for CN1CCN(CCCN2CC3C(c4ccccc4)CC(N(C)C)(CC3c3ccccc3)C2)CC1 (racemic) is 1.33

Form: molecule = CN(C)C12CC(c3ccccc3)C(CN(CCN3CCCCC3)C1)C(c1ccccc1)C2 (racemic) ; selectivity ratio = 32.4

Form: molecule = CN(C)C12CC(c3ccccc3)C(CN(CCN3CCCC3)C1)C(c1ccccc1)C2 (racemic) ; selectivity ratio = 19.2

Sample CN(C)C12CC(c3ccccc3)C(CN(C(=O)CCN3CCCC3)C1)C(c1ccccc1)C2 (racemic) ; selectivity ratio observed: 53.3

The value of selectivity ratio measured for the molecule CN1CCN(CCC(=O)N2CC3C(c4ccccc4)CC(N(C)C)(CC3c3ccccc3)C2)CC1 (racemic) turned out to be 72.1

The molecule listed as CN(C)C12CC(c3ccccc3)C(CN(CCCN3CCCC3)C1)C(c1ccccc1)C2 (racemic) has a reported selectivity ratio of 10.3

Documented selectivity ratio of CN(C)C12CCN(C(=O)CN3CCCCC3)C(C(c3ccccc3)C1)C(c1ccccc1)C2 (configuration not stated) : 82.2

The molecule identified as CCN(CC)CC(=O)N1CCC2(N(C)C)CC(c3ccccc3)C1C(c1ccccc1)C2 (configuration not stated) registered its selectivity ratio at 68.9

Please fill in: selectivity ratio reported for CN(C)C12CC(NC(=O)CCN3CCCCC3)C(C(c3ccccc3)C1)C(c1ccccc1)C2 (racemic) = 11.4

selectivity ratio reported for this molecule CN(C)C12CCN(CCN3CCCCC3)C(C(c3ccccc3)C1)C(c1ccccc1)C2 (racemic) : 155

Documented selectivity ratio of CN(C)C12CC(c3ccccc3)C(CN(C(=O)CCN3CCCCC3)C1)C(c1ccccc1)C2 (racemic) : 238

The recorded selectivity ratio for entry CN(C)C12CC(c3ccccc3)C(CN(CCCN3CCCCC3)C1)C(c1ccccc1)C2 (racemic) equals 9.21

Recorded selectivity ratio (molecule CN1CCN(CC(=O)N2CC3C(c4ccccc4)CC(N(C)C)(CC3c3ccccc3)C2)CC1 (racemic) ): 21.5

The molecule identified as CN(C)C12CC(c3ccccc3)C(CN(C(=O)CN3CCCCC3)C1)C(c1ccccc1)C2 (racemic) registered its selectivity ratio at 30.3

Sample `C[C@@H]1CC[C@H]2[C@@H](C)C(=O)O[C@@H]3O[C@@]4(C)CC[C@@H]1[C@]32OO4` ; selectivity ratio observed: 70400
